// data source = patent US20240382586A1

Provide the recorded A(405 nm) for the entries that follow.
target-or-test-system: SARS-CoV-2 spike receptor-binding domain (RBD), recombinant (SARS-CoV-2, UniProt P0DTC2 319-541)
assay-name: ELISA on RBD
One number for each entry.

For orientation, consider the following solved cases.
- 2-5C4 (antibody, V domains shown) VH: EVQLVESGGGLIQPGGSLRLSCAASGLTVSSNYMNWVRQAPGKGLEWVSVIYAGGSTFYADSVKGRFTISRDNSKNTLYLQMNSLRAEDTAFYYCARESYGMDVWGQGTTVTVSS VL: EIVLTQSPATLSLSPGERATLSCRASQSISSSYLAWYQQKPGQAPRLLIYGASSRATGIPDRFSGSGSGTDFTLTISRLEPEDFAVYYCQQYGSLYTFGQGTKVEIK: 2.26
- 2-5D9 (antibody, V domains shown) VH: QVQLQESGPGLVKPSETLSLTCTVSGGSISSYYWSWIRQPPGKGLEWIGYIYYTGSTNYNPSLKSRVTISVDTSKNQFSLKLRSVTAADTAVYYCAGTYDSNLLDPWGQGTLVTVSS VL: DIQMTQSPSSLSASVGDRVTITCRASQGISNSLAWYQQKPGKAPKLLLYDVFRFESGVPSRFSGSGSGTDYTLTISSLQPDDFATYYCQQYYSTPYTFGQGTKVEIK: 3.49
- 2-4G1 (antibody, V domains shown) VH: EVQLVQSGAEVKRPGASVKVSCKASGYTFTSYGLSWVRQAPGQGLEWMGWINTYNGHTNYAQKVQGRVTLTTDTSTSTAYMELRSLRSDDTAVYYCARVESVYYGSGTCDPWGQGTLVTVSS VL: DIQMTQSPSSLSASVGDRVTITCRASQSISSYLNWYQQKPGKAPKLLIYIASSLQSGVPSRFSGSGSGTDFTLTISSLQPEDFATYYCHQSYSSPHTFGQGTKLEIK: 2.08

--- query ---
Return value of A(405 nm) for input 2-5F8 (antibody, V domains shown) VH: QVQLVQSGAEVKKPGASVKVSCKASGYTFTNYYMHWVRQAPGQGLEWMGVINPSGASTSYAQKFQGRVTMTRDTSTSTVYMELSSLRSEDTAVYYCASWGGNIPLYYYYGMDVWGQGTTVTVSS VL: QSALTQPPSASGSPGQSVTISCTGTSSDVGGYNYVSWYQQHPGKAPKLMIYEVSKRPSGVPDRFSGSKAGNTASLTVSGLQAEDEADYYCTSYAGSNIWVFGGGTKLTVL , no commentary.
3.48
